biological target: NPM-ALK fusion protein (Homo sapiens); construct: endogenous in cells; host or cells: SU-DHL-1; the other entry of the earlier key: NPM1 (P06748, Nucleophosmin); assay: Western blot of NPM-ALK fusion protein levels in SU-DHL-1 cells; type: cell-based; conditions: SU-DHL-1 cells, 30 nM, Western blot; read-out: ALK fusion protein degradation, SU-DHL-1 (30 nM)
Sequence (Q9UM73 with tags, fused parts or gaps): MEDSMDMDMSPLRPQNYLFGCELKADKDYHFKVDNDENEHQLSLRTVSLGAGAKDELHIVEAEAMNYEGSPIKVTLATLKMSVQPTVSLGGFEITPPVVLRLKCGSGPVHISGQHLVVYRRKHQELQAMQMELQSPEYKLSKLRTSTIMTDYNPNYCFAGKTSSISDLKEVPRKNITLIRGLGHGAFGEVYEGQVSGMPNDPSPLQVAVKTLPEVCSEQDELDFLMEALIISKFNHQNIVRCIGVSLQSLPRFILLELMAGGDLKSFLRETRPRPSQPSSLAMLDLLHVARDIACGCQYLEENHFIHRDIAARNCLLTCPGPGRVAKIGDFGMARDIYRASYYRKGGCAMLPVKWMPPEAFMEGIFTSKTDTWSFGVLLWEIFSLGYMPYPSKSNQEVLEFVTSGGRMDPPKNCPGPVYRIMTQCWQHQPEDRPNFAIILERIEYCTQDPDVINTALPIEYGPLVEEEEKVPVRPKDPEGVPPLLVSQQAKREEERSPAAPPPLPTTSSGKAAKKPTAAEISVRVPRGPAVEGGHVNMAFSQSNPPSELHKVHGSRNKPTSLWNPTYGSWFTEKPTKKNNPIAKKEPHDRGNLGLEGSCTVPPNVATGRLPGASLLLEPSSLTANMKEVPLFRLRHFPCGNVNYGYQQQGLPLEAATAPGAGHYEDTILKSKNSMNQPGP
measuredEndpoint: Dmax at 0.03 µM

Any idea what its Dmax at 0.03 µM is? The compound is Cc1cc(Nc2ncc(Cl)c(Nc3ccccc3S(=O)(=O)C(C)C)n2)c(OC(C)C)cc1C1CCN(CC(=O)NCCCNc2cccc3c2C(=O)N(C2CCC(=O)NC2=O)C3=O)CC1 (centres unmarked)
> 80%

Any idea what its Dmax at 0.03 µM is? The compound is Cc1cc(Nc2ncc(Cl)c(Nc3ccccc3S(=O)(=O)C(C)C)n2)c(OC(C)C)cc1C1CCN(CC(=O)NCCOCC(=O)N[C@H](C(=O)N2C[C@H](O)C[C@H]2C(=O)NCc2ccc(-c3scnc3C)cc2)C(C)(C)C)CC1
< 20%

Any idea what its Dmax at 0.03 µM is? The compound is Cc1cc(Nc2ncc(Cl)c(Nc3ccccc3S(=O)(=O)C(C)C)n2)c(OC(C)C)cc1C1CCN(CC(=O)NCCCCCCNc2cccc3c2C(=O)N(C2CCC(=O)NC2=O)C3=O)CC1 (centres unmarked)
> 80%

Any idea what its Dmax at 0.03 µM is? The compound is Cc1cc(Nc2ncc(Cl)c(Nc3ccccc3S(=O)(=O)C(C)C)n2)c(OC(C)C)cc1C1CCN(CC(=O)NCCOCCOCCNc2cccc3c2C(=O)N(C2CCC(=O)NC2=O)C3=O)CC1 (centres unmarked)
> 80%

Any idea what its Dmax at 0.03 µM is? The compound is Cc1cc(Nc2ncc(Cl)c(Nc3ccccc3S(=O)(=O)C(C)C)n2)c(OC(C)C)cc1C1CCN(CC(=O)NCCCCCCCCCC(=O)N[C@H](C(=O)N2C[C@H](O)C[C@H]2C(=O)NCc2ccc(-c3scnc3C)cc2)C(C)(C)C)CC1
< 20%

Any idea what its Dmax at 0.03 µM is? The compound is Cc1cc(Nc2ncc(Cl)c(Nc3ccccc3S(=O)(=O)C(C)C)n2)c(OC(C)C)cc1C1CCN(CC(=O)NCCOCCOCCOCCNc2cccc3c2C(=O)N(C2CCC(=O)NC2=O)C3=O)CC1 (centres unmarked)
> 80%

Any idea what its Dmax at 0.03 µM is? The compound is Cc1cc(Nc2ncc(Cl)c(Nc3ccccc3S(=O)(=O)C(C)C)n2)c(OC(C)C)cc1C1CCN(CC(=O)NCCCCCCCCC(=O)N[C@H](C(=O)N2C[C@H](O)C[C@H]2C(=O)NCc2ccc(-c3scnc3C)cc2)C(C)(C)C)CC1
< 20%

Any idea what its Dmax at 0.03 µM is? The compound is Cc1cc(Nc2ncc(Cl)c(Nc3ccccc3S(=O)(=O)C(C)C)n2)c(OC(C)C)cc1C1CCN(CC(=O)NCCCCNc2cccc3c2C(=O)N(C2CCC(=O)NC2=O)C3=O)CC1 (centres unmarked)
20 to 80%

Any idea what its Dmax at 0.03 µM is? The compound is Cc1cc(Nc2ncc(Cl)c(Nc3ccccc3S(=O)(=O)C(C)C)n2)c(OC(C)C)cc1C1CCN(CC(=O)NCCCCCCCCNc2cccc3c2C(=O)N(C2CCC(=O)NC2=O)C3=O)CC1 (centres unmarked)
20 to 80%

Any idea what its Dmax at 0.03 µM is? The compound is Cc1cc(Nc2ncc(Cl)c(Nc3ccccc3S(=O)(=O)C(C)C)n2)c(OC(C)C)cc1C1CCN(CC(=O)NCCOCCOCCOCCOCCOCCNc2cccc3c2C(=O)N(C2CCC(=O)NC2=O)C3=O)CC1 (centres unmarked)
> 80%

Any idea what its Dmax at 0.03 µM is? The compound is Cc1cc(Nc2ncc(Cl)c(Nc3ccccc3S(=O)(=O)C(C)C)n2)c(OC(C)C)cc1C1CCN(CC(=O)NCCCCCC(=O)N[C@H](C(=O)N2C[C@H](O)C[C@H]2C(=O)NCc2ccc(-c3scnc3C)cc2)C(C)(C)C)CC1
20 to 80%

meta.source: patent US20210283261A1
